Sourced from ChEMBL document CHEMBL5113400

Tested On: Bcr/Abl fusion protein (Homo sapiens, UniProt P00519)
Sequence (P00519 whole entry, the tested form may be a part): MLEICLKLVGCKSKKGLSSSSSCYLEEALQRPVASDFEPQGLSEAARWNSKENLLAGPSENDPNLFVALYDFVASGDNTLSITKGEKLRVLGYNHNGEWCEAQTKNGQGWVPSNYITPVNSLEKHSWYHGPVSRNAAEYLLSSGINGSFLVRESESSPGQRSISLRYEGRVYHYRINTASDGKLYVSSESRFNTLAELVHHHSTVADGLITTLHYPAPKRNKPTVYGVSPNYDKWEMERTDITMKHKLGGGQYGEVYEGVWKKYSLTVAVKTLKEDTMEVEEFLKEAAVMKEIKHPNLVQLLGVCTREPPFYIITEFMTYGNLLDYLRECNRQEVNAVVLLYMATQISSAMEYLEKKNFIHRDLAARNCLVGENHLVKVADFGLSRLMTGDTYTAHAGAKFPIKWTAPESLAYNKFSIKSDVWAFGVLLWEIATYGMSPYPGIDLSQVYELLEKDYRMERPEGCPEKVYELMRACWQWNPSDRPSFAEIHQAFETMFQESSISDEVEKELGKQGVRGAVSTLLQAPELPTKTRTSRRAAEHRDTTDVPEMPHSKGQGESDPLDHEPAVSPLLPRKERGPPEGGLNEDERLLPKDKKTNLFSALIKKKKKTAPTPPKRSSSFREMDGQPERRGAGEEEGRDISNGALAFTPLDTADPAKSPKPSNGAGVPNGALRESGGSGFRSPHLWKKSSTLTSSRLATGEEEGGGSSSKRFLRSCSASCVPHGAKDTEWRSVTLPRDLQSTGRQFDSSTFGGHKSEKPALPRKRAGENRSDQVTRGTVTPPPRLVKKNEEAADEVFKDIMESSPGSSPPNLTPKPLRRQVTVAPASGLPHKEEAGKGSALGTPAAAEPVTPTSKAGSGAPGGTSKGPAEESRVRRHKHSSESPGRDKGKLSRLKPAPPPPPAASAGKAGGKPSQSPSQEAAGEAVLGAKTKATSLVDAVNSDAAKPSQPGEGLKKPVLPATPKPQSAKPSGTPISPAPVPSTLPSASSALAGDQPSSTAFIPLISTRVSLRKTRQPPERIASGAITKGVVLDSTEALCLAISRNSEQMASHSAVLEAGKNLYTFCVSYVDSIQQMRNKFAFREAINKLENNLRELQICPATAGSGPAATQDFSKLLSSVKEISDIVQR
Sequence (P11274 whole entry, further chain, the tested form may be a part): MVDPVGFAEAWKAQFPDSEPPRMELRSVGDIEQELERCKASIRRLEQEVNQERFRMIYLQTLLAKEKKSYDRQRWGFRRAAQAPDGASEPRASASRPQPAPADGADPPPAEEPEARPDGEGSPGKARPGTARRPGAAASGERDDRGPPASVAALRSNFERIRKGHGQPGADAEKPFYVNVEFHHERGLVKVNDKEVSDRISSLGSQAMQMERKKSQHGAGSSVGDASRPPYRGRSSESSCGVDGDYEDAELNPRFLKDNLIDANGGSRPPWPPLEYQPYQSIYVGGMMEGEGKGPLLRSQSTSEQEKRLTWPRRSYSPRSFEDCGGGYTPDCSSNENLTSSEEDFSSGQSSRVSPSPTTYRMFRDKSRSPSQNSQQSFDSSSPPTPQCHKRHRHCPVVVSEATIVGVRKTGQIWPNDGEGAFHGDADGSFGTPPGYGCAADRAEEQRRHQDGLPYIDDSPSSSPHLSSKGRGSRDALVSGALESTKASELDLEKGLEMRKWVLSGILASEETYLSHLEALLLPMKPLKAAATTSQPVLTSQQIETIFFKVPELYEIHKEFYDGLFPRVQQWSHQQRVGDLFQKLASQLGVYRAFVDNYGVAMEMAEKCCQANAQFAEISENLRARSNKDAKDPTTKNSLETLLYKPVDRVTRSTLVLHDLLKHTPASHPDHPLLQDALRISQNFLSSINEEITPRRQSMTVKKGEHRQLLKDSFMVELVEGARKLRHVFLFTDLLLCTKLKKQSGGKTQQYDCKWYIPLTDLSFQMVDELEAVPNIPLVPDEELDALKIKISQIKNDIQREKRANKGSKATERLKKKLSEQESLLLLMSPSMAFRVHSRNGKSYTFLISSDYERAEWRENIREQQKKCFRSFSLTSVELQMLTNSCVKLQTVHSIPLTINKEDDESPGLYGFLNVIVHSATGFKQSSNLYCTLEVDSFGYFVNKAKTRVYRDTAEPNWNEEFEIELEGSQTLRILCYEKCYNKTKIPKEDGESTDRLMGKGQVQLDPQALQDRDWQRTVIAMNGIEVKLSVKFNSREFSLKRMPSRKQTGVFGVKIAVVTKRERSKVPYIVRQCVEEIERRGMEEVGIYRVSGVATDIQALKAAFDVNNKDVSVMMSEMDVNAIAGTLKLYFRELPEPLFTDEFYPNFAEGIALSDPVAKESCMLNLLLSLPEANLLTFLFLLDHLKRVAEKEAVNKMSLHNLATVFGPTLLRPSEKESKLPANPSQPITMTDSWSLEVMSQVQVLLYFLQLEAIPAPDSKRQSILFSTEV
Test Description: Inhibition of wild type Bcr-Abl (unknown origin) incubated for 1 hr in presence of ATP by ADP-Glo kinase assay
Listed here: items and their measured pIC50.
When answering, recall that pIC50 equals minus log10 of the concentration in mol/L, and write that number alone.

// solved cases for pIC50 follow
Chemical Structure	pIC50
CC(=O)Nc1nc2ccc(-c3cn([C@@H]4CN[C@H](C(=O)Nc5ccc(Cl)cc5Cl)C4)nn3)nc2s1	8.32
O=C(Nc1nc2ccc(-c3cn([C@@H]4CN[C@H](C(=O)Nc5ccc(Cl)c(C(F)(F)F)c5)C4)nn3)nc2s1)C1CC1	7.61
CC(C)(C)OC(=O)N1C[C@@H](n2cc(-c3ccc4c(N)n[nH]c4c3)nn2)C[C@H]1C(=O)Nc1ccc(Br)cc1	7.30
CC(=O)Nc1n[nH]c2cc(-c3cn([C@@H]4CN[C@H](C(=O)Nc5ccc(Cl)cc5Cl)C4)nn3)ccc12	8.50
C=CC(=O)Nc1ccc(-c2cn([C@@H]3CN[C@H](C(=O)Nc4ccc(Cl)c(C(F)(F)F)c4)C3)nn2)cn1	8.03

Q: Fill in the blank: the reported pIC50 of `CCN1CCN(c2cc(NC(=O)[C@@H]3C[C@H](n4cc(-c5ccc6c(N)n[nH]c6c5)nn4)CN3)ccc2Cl)CC1` is ____.
Result: 8.06

Q: Fill in the blank: the reported pIC50 of `CC(C)(C)OC(=O)N1C[C@@H](n2cc(-c3ccc4c(N)n[nH]c4c3)nn2)C[C@H]1C(=O)Nc1ccc(Cl)cc1Cl` is ____.
Result: 7.22
